Hello, the source for this data is ChEMBL document CHEMBL5584231, in case you need it.

Collected selectivity ratio values appear next to each entry.
- ASSAY_SUMMARY: Therapeutic index, ratio of HC10 for mouse RBC to IC50 for cytotoxicity against RG cells (unknown origin)
- Format: toxicity, cell-based
- APPLIED_CONDITIONS: mouse RBC and RG cells, read-out: TI
Residues, ends and D or L forms follow the SMILES beside them.
MEASURE: selectivity ratio

CC(C)C[C@H](NC(=O)[C@H](CC(C)C)NC(=O)[C@H](CCCCN)NC(=O)[C@H](CCCCN)NC(=O)[C@H](CC(C)C)NC(=O)[C@H](CC(C)C)NC(=O)[C@H](CCCCN)NC(=O)[C@H](CCCCN)NC(=O)[C@H](CC(C)C)NC(=O)[C@H](CC(C)C)NC(=O)[C@H](CCC(=O)O)NC(=O)[C@H](CCCCN)NC(=O)[C@H](CC(C)C)NC(=O)[C@@H](N)CC(C)C)C(N)=O (H-LLKELLKKLLKKLL-NH2); 1.26
CC(C)C[C@H](NC(=O)[C@H](CCCCN)NC(=O)[C@H](CC(C)C)NC(=O)[C@H](CC(C)C)NC(=O)[C@H](CCCCN)NC(=O)[C@H](CCCCN)NC(=O)[C@H](CC(C)C)NC(=O)[C@H](CC(C)C)NC(=O)[C@H](CCCCN)NC(=O)[C@H](CCCCN)NC(=O)[C@H](CC(C)C)NC(=O)[C@H](CC(C)C)NC(=O)[C@@H](N)CCCCN)C(N)=O (H-KLLKKLLKKLLKL-NH2); 4.98
CC(C)C[C@H](NC(=O)[C@H](CCCCN)NC(=O)[C@H](CC(C)C)NC(=O)[C@H](CC(C)C)NC(=O)[C@H](CCCCN)NC(=O)[C@H](CCCCN)NC(=O)[C@H](CC(C)C)NC(=O)[C@H](CC(C)C)NC(=O)[C@H](CCCCN)NC(=O)[C@H](CCCCN)NC(=O)[C@H](CC(C)C)NC(=O)[C@H](CC(C)C)NC(=O)[C@H](CCCCN)NC(=O)[C@@H](N)CCCCN)C(N)=O (H-KKLLKKLLKKLLKL-NH2); 6.72
